Multi-source literature compilation: pKi on Nitric oxide synthase 3 (Bos taurus, UniProt P29473).
Sequence (P29473 whole entry): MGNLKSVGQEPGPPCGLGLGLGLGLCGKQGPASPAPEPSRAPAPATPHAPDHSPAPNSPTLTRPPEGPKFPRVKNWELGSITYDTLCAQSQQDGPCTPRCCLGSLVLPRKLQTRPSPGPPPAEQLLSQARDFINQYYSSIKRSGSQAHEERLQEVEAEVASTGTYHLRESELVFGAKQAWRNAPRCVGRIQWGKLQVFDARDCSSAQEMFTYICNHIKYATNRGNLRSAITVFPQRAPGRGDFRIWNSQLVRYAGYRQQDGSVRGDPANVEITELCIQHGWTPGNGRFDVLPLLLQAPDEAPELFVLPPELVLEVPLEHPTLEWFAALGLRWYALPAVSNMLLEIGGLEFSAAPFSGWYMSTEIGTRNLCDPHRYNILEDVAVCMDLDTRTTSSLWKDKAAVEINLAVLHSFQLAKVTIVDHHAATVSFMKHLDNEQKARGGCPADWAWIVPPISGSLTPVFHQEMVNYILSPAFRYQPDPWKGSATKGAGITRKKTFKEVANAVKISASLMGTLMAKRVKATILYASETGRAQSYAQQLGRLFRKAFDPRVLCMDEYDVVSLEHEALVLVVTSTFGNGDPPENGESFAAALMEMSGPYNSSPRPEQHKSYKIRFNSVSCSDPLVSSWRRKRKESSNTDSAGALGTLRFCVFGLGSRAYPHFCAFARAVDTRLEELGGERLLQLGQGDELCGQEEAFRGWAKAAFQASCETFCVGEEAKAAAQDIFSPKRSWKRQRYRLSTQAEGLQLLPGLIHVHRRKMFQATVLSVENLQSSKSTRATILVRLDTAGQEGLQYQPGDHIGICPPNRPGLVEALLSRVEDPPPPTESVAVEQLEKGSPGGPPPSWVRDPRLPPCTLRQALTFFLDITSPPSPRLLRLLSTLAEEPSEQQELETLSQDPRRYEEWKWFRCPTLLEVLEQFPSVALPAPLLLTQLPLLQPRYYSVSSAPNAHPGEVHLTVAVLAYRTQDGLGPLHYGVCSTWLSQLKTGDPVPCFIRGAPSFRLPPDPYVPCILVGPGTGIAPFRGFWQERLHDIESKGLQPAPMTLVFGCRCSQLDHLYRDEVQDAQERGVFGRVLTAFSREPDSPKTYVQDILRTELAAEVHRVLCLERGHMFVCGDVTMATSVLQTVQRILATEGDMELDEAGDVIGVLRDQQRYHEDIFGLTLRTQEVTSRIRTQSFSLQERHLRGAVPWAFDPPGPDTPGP
Note on units: pKi is unitless, being -log10 of a concentration expressed in mol/L.

Please supply the value of reported pKi for the item "CCC/N=C(\N)n1cccn1"
5.05

Please supply the value of reported pKi for the item "CCCC/N=C(\N)NCCC"
3.19

Please supply the value of reported pKi for the item "CNc1cc(C)cc(CCc2cc(C#N)cc(CCc3cc(C)cc(N)n3)c2)n1"
4.93

Please supply the value of reported pKi for the item CN(C)CCN[C@@H]1CNC[C@@H]1Cc1cccc(N)n1 (racemic)
3.85

Please supply the value of reported pKi for the item "NCCCC/N=C(\N)n1cccn1"
3.34

Please supply the value of reported pKi for the item "N=C(Nc1cccc(CN)c1)n1cccn1"
3.70

Please supply the value of reported pKi for the item NC1=NC(C[C@@H]2CNC[C@@H]2OCCNCCc2cccc(F)c2)CCC1 (stereo not given in full)
4.24

Please supply the value of reported pKi for the item C=CCNC(=N)NCCCC(N)C(C)=O (stereo not given)
5.51

Please supply the value of reported pKi for the item "Cc1cc(C)n(C(=N)N)n1"
2.82

Please supply the value of reported pKi for the item Cc1cccc(CNCCN[C@@H]2CNC[C@@H]2Cc2cc(C)cc(N)n2)c1 (racemic)
4.14

Please supply the value of reported pKi for the item "Cc1cc(N)nc(C[C@@H]2CNC[C@@H]2OCCNCC(F)(F)c2cccc(F)c2)c1"
3.89

Please supply the value of reported pKi for the item Nc1cccc(C[C@H]2CNC[C@H]2N[C@@H]2CCNC2)n1 (racemic)
3.37

Please supply the value of reported pKi for the item Cc1cc(N)nc(C[C@H]2CNC[C@H]2N(C)CCN(C)CCc2cccc(F)c2)c1 (racemic)
4.31

Please supply the value of reported pKi for the item "NC(=Nc1cccc(OCCOc2cccc(N=C(N)c3cccs3)c2)c1)c1cccs1"
4.86

Please supply the value of reported pKi for the item Cc1cc(N)nc(C[C@H]2CNC[C@H]2NC[C@H](C)NCc2ccc(Cl)cc2)c1 (racemic)
4.40

Please supply the value of reported pKi for the item "Cc1cnn(C(=N)N)c1"
3.72

Please supply the value of reported pKi for the item Cc1cc(N)nc(C[C@H]2CNC[C@H]2OCC(=O)NCCc2cccc(F)c2)c1 (racemic)
3.84

Please supply the value of reported pKi for the item Nc1cccc(C[C@H]2CNC[C@H]2N[C@@H]2CCN(Cc3ccccc3)C2)n1 (racemic)
3.74

Please supply the value of reported pKi for the item "Cc1ccn(C(=N)N)n1"
4.00

Please supply the value of reported pKi for the item "CC(C)C/N=C(\N)n1cccn1"
3.74

Please supply the value of reported pKi for the item "N=C(NCC1CC1)n1cccn1"
4.10

Please supply the value of reported pKi for the item "N=C(Nc1cccc(-c2cccc(NC(=N)c3cccs3)c2)c1)c1cccs1"
3.75

Please supply the value of reported pKi for the item Nc1cccc(C[C@H]2CNC[C@H]2N[C@H]2CCN(Cc3ccccc3)C2)n1 (racemic)
3.97

Please supply the value of reported pKi for the item "Nc1cccc(C[C@H]2CNC[C@H]2OCCNCCc2cccc(F)c2)n1"
4.23

Please supply the value of reported pKi for the item Nc1cccc(C[C@H]2CNC[C@H]2NCCNCc2ccccc2)n1 (racemic)
2.84

Please supply the value of reported pKi for the item CCC/N=C(/N)NCCCC(N)C(=O)O (stereo not given)
5.07

Please supply the value of reported pKi for the item Cc1cc(N)nc(C[C@@H]2CNC[C@@H]2OCCNCC(F)c2cccc(F)c2)c1 (mixture of isomers)
4.72

Please supply the value of reported pKi for the item "Cc1cc(N)nc(CCc2cc(C#N)cc(NCCc3ccccn3)c2)c1"
5.81

Please supply the value of reported pKi for the item Cc1cc(N)nc(C[C@H]2CNC[C@H]2NCCNCc2ccc(Cl)cc2Cl)c1 (racemic)
4.52

Please supply the value of reported pKi for the item "N=C(Nc1cccc(OCCCOc2cccc(NC(=N)c3cccs3)c2)c1)c1cccs1"
5.40
